Below is a list of entries, each paired with its recorded SPOT peptide array binding signal intensity value.
Target: CaSla1-D1-D2
Test: SPOT peptide array binding signal intensity (averaged, normalized) (arbitrary units (background-subtracted, floor 0; scale differs between SH3 domains)); higher = stronger binding of the SH3 domain to the peptide
The response must contain the number and no unit.

KFIPSRPAPKPPSSA	1010

Kindly consider the entry below.
*Q* Entry under review: `SSSSSPPPLPTRRDH` . Reported SPOT peptide array binding signal intensity?
*A* 76
